Assignment: determine reported TGI for the given molecules.
Test system: M19-MEL melanoma
method summary: NCI tumour cell line growth inhibition, 48 h

- CCOC(=O)Nn1c(C)cc(C(=O)OC)c1C: > 100 µM
- Cc1ccc(NC(=O)CC2C(=O)Nc3ccccc3S2=O)c(C)c1 (stereo not given): > 69.1 µM
- COc1ccccc1NC(=O)C(CC(C(=O)Nc1ccccc1OC)/C(C)=N/NC(=O)c1ccccc1O)/C(C)=N/NC(=O)c1ccccc1O (stereo not given): > 100 µM
- C[CH2][Sn]([CH2]C)([O]C(=O)c1ccc(F)cc1)[O][Sn]([CH2]C)([CH2]C)[O]C(=O)c1ccc(F)cc1: > 100 µM
- COC(=O)C1=C(C)N(NC(N)=O)C(C)(O)C12CCOC2=O (stereo not given): > 100 µM

Please go through the list and note TGI for each molecule.
1. Cc1c(CC/C(=N\Nc2ccc([N+](=O)[O-])cc2[N+](=O)[O-])c2ccccc2)c2ccccc2n1C
2. CC(C)(C)C(=O)/C=C/c1cccc(Oc2ccccc2)c1
3. Nc1nc(=O)n(CC(O)CO)s1 (stereo not given)

output:
> 100 µM
54.2 µM
> 100 µM

Please go through the list and note TGI for each molecule.
1. CCCN1C(=O)CNC(=O)c2[nH]cnc21
2. O=NN(CCCl)C(=O)N[C@H]1CCCC[C@@H]1Cl

output:
1: > 100 µM; 2: > 100 µM

----------
Test system: HT29 colon
method summary: NCI tumour cell line growth inhibition, 48 h
measurement name: TGI

• COc1cccc(C2c3cc4c(cc3OC(N3CCCCC3)C2C)OCO4)c1OC (stereo unspecified) = 19.8 µM
• C#Cc1cc(CN(CC(=O)OC(C)(C)C)CC(=O)OC(C)(C)C)nc(CN(CC(=O)OC(C)(C)C)CC(=O)OC(C)(C)C)c1 = > 100 µM
• CC12C(=O)OC(=O)C1(C)C1C=CC2O1 (stereo unspecified) = > 100 µM
• CCN1CCN(c2ccc(Nc3ncc4ccc5ncn(C(C)C)c5c4n3)nc2)CC1 = 15.5 µM
• O=C(C=Nc1ccccc1C(=O)[O-])c1cccs1.O=C(C=Nc1ccccc1C(=O)[O-])c1cccs1.[Zn+2] = > 100 µM

Please go through the list and note TGI for each compound.
1. O=C(/C=C/c1ccc2c(c1)OCO2)CC(=O)/C=C/c1ccc2c(c1)OCO2
2. COC(=O)N/N=C(/Cc1occc(=O)c1O)C(=O)Nc1ccc([N+](=O)[O-])cc1[N+](=O)[O-]
3. O=C(c1ccccc1)C1C[C@H]2CO[C@H](c3ccccc3)N2C1=O (stereo partly specified)
4. O=C1COCCN1C(=O)c1ccccc1Cl
5. C[N+](C)(CCO)CCN1c2ccccc2Sc2ccccc21
6. CC[CH2][Sn]([CH2]CC)([O]C(=O)Cc1ccc(F)cc1)[O][Sn]([CH2]CC)([CH2]CC)[O]C(=O)Cc1ccc(F)cc1

output:
["> 100 µM", "> 100 µM", "> 100 µM", "> 100 µM", "> 10 µM", "2.02 µM"]

Please go through the list and note TGI for each compound.
1. O=C(COc1ccc(Cl)cc1Cl)N/N=C/C=C/c1ccc([N+](=O)[O-])o1
2. Cn1c(=O)n2n(c1=O)[C@@H](c1ccccc1)[C@H]2c1ccccc1
3. CC1=CC(=O)c2ccc(C)cc2C1=O
4. C=C[C@H]1C=Cc2c(OC)cccc2[C@@H]1COP1(=S)NC(C)C(c2ccccc2)O1 (stereo partly specified)
5. COC(=O)c1ccccc1C1CN=NC12Cc1cc(C)cc(C)c1C2=O (stereo unspecified)
6. CC(=O)CCC[C@H](C)[C@@H](O)[C@@H]1O[C@H]([C@@]2(C)CCC(=O)O2)C[C@H]1C(=O)O
7. Cc1nc2sc(C(=O)Nc3cccc(Br)c3)c(N)c2cc1C(O)c1ccccc1 (stereo unspecified)

output:
1: > 100 µM; 2: > 100 µM; 3: > 100 µM; 4: > 100 µM; 5: > 100 µM; 6: > 100 µM; 7: > 82.5 µM
